The binders listed here are annotated with their Kd.
- TARGET_ENTITY: T1, hu-CD74 antigen (R&D SYSTEMS catalog #3590-CD-050) (human, UniProt P04233-2 73-232, limits assumed)
- T1 construct: Bought antigen; also called rhCD74; human CD74
- T1 sequence (looked up): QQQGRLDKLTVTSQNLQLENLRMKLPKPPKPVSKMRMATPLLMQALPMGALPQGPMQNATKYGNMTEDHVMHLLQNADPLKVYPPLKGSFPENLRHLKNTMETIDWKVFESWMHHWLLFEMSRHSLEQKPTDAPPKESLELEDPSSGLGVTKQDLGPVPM
- ASSAY_EXPLANATION: SPR (Biacore T200), IgG captured on anti-human Fc, rhCD74 analyte

{"BINDER": "HC 1251_B08 (wt)/LC 1337_A09 (g) (antibody, human IgG1, kappa, V domains shown, IgG format) VH: QVQLVESGGGVVQPGRSLRLSCAASGFNFSDYGMHWVRQAPDKGLEWVAVIWYDGSISYYADSVKGRFTISRDNSKNTLYLQMNSLRAEDTAVYYCARGGTVEHGAVYGTDVWGQGATVTVSS VL: DIQMTQSPSSVSASVGDRVTITCRASQGIGSWLAWYQQKPGKAPKLLIYAADRLQSGVPSRFSGSGSGTDFTLTISSLQPEDFATYYCQQYHTYPLTFGGGTKVEIKR", "UNITS_OF_MEASURE": "pM", "Kd": 347}
{"BINDER": "HC 1251_B08 (wt)/LC 1337_A09 (wt) (antibody, human IgG1, kappa, V domains shown, IgG format) VH: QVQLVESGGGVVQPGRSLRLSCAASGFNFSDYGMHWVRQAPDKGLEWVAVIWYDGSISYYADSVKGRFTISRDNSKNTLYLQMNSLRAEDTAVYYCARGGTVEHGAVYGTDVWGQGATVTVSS VL: DIQMTQSPSSLSASVGDRVTITCRASQGIGSWLAWYQQKPEKAPKSLIYAADRLQSGVPSRFSGSGSGTDFTLTISSLQPEDFATYYCQQYHTYPLTFGGGTKVEIKR", "UNITS_OF_MEASURE": "pM", "Kd": 108}
{"BINDER": "HC 1251_A06 (g)/LC 1275_C10 (g) (antibody, human IgG1, kappa, V domains shown, IgG format) VH: QVQLVESGGGVVQPGRSLRLSCAASGFDFSSYGMHWVRQAPGKGLEWVAVIWDDGSDRYYADSVKGRFTISRDNSKNTLYLQMNSLRAEDTAVYYCARGGTRVLGAIHGTDVWGQGTTVTVSS VL: DIQMTQSPSSVSASVGDRVTITCRASQGVSSWLAWYQQKPGKAPKLLIYSARYLQSGVPSRFSGSGSGTDFTLTISSLQPEDFATYYCQQYNLYPLTFGGGTKVEIKR", "UNITS_OF_MEASURE": "pM", "Kd": 209}
